Entry source: paper PMC11509930

Km reference
Substrate: c1ccc([C@H]2CO2)cc1
Assay: purified protein
Assay type: biochemical, Phanerodontia chrysosporium
Settings: 10-80 mM SO, 37 °C, buffer pH 8.0
Use mM as the unit, but write only the number.

Example results:
Protein	Test Readout	Reading
PchEHA (epoxide hydrolase) (Phanerodontia chrysosporium; E251G/G14A/K291R) (protein, catalytic triad D105/H308/D277) MDASLFKDFKTSRAFNYHYFYSPAKGPRPTLFFLHGNPSVATDWAQIVPHFTSRGYGVLAPDMLGYGDTDKPTDPALYVSSGMCRNLVDLLDHEGLEKVIAIGHDWGCLSVSRLASYYPERVIAYAFLAASFIGPIPPIPFDAFLEYIKQQVGYELYGYWKFYSEPGLDQFVRDHLDTFLSILWPSDPAVWKTRLAPTGALKQSALEGWTAPLAPYITEEFKKHHVEVFNKNGFEAPACYYRIMTSGLQAGDDKQILPERAVPPKDAPVFFGAANKDYICIPALAYATFKRDEWKDHKITIKEYDADHWLILSHADQVSRDLEAWIEGFASGGQ	Km	41.96
PchEHA (epoxide hydrolase) (Phanerodontia chrysosporium; E251G/Y163H) (protein, catalytic triad D105/H308/D277) MDASLFKDFKTSRGFNYHYFYSPAKGPRPTLFFLHGNPSVATDWAQIVPHFTSRGYGVLAPDMLGYGDTDKPTDPALYVSSGMCRNLVDLLDHEGLEKVIAIGHDWGCLSVSRLASYYPERVIAYAFLAASFIGPIPPIPFDAFLEYIKQQVGYELYGYWKFHSEPGLDQFVRDHLDTFLSILWPSDPAVWKTRLAPTGALKQSALEGWTAPLAPYITEEFKKHHVEVFNKNGFEAPACYYRIMTSGLQAGDDKQILPERAVPPKDAPVFFGAANKDYICIPALAYATFKKDEWKDHKITIKEYDADHWLILSHADQVSRDLEAWIEGFASGGQ	Km	30.39

Turning now to a further record.
Value lookup for Km; key = PchEHA (epoxide hydrolase) (Phanerodontia chrysosporium; G14A/K291R/Y163H) (protein, catalytic triad D105/H308/D277) MDASLFKDFKTSRAFNYHYFYSPAKGPRPTLFFLHGNPSVATDWAQIVPHFTSRGYGVLAPDMLGYGDTDKPTDPALYVSSGMCRNLVDLLDHEGLEKVIAIGHDWGCLSVSRLASYYPERVIAYAFLAASFIGPIPPIPFDAFLEYIKQQVGYELYGYWKFHSEPGLDQFVRDHLDTFLSILWPSDPAVWKTRLAPTGALKQSALEGWTAPLAPYITEEFKKHHVEVFNKNGFEAPACYYRIMTSGLQAEDDKQILPERAVPPKDAPVFFGAANKDYICIPALAYATFKRDEWKDHKITIKEYDADHWLILSHADQVSRDLEAWIEGFASGGQ
57.82
